Reported microsomal CLint by item:
assay: in vitro; settings: human, microsomes
Express it in µL/min/mg; write the number only.

{"molecule": "COc1ccc(-n2c([C@H](Cc3cc(F)cc(F)c3)NC(=O)CN3CCN(S(=O)(=O)c4ccc(N)cc4)CC3=O)nc3ccccc3c2=O)cc1", "microsomal CLint, µL/min/mg": 143}

Now consider a different molecule.
Provide one value: measured microsomal CLint of Nc1ccc(S(=O)(=O)N2CCN(CC(=O)N[C@@H](Cc3cc(F)cc(F)c3)c3nc4ccccc4c(=O)n3-c3ccc(S(=O)(=O)N4CCOCC4)cc3)C(=O)C2)cc1 313

---

assay: In vivo pharmacokinetic study in SD rats; conditions: Sprague-Dawley, rat, iv, 2 mg/kg
measurement-type: C0 (ng/mL)
Express it in ng/mL; write the number only.

Provide one value: measured C0 of Nc1ccc(S(=O)(=O)N2CCN(CC(=O)N[C@@H](Cc3cc(F)cc(F)c3)c3nc4ccccc4c(=O)n3-c3ccc(S(=O)(=O)N4CCOCC4)cc3)C(=O)C2)cc1 [21a2] 2980

---

test system: HIV-2 ROD; assay: Anti-HIV-2 activity in MT-4 cells; assay type: cell-based; conditions: HIV-2 ROD, MT-4 cells
measurement-type: SI ROD (CC50/EC50)

Field: example entries. Status: answers known.
{"molecule": "Nc1ccc(S(=O)(=O)N2CCN(CC(=O)N[C@@H](Cc3ccccc3)c3nc4ccccc4c(=O)n3-c3ccc(S(=O)(=O)N4CCS(=O)(=O)CC4)cc3)C(=O)C2)cc1", "SI ROD (CC50/EC50)": ">277.78"}
{"molecule": "COc1ccc(-n2c([C@H](Cc3cc(F)cc(F)c3)NC(=O)CN3CCN(S(=O)(=O)c4ccc([N+](=O)[O-])cc4)CC3=O)nc3cc(Br)ccc3c2=O)cc1", "SI ROD (CC50/EC50)": ">260.42"}
{"molecule": "COc1ccc(-n2c([C@H](Cc3ccccc3)NC(=O)CN3CCN(S(=O)(=O)c4ccc(N)cc4)CC3=O)nc3cc(F)ccc3c2=O)cc1", "SI ROD (CC50/EC50)": ">1250.00"}
{"molecule": "COc1ccc(-n2c([C@H](Cc3cc(F)cc(F)c3)NC(=O)CN3CCN(S(=O)(=O)c4ccc(N)cc4)CC3=O)nc3ccccc3c2=O)cc1", "SI ROD (CC50/EC50)": ">1736.11"}

State measured SI ROD (CC50/EC50) of the molecule Nc1ccc(S(=O)(=O)N2CCN(CC(=O)N[C@@H](Cc3cc(F)cc(F)c3)c3nc4ccccc4c(=O)n3-c3ccc(S(=O)(=O)N4CCS(=O)(=O)CC4)cc3)C(=O)C2)cc1 with HIV-2 ROD. >240.38

State measured SI ROD (CC50/EC50) of the molecule O=C(CN1CCN(S(=O)(=O)c2ccc([N+](=O)[O-])cc2)CC1=O)N[C@@H](Cc1cc(F)cc(F)c1)c1nc2ccccc2c(=O)n1-c1ccc(S(=O)(=O)N2CCOCC2)cc1 with HIV-2 ROD. >833.33

State measured SI ROD (CC50/EC50) of the molecule COc1ccc(-n2c([C@H](Cc3cc(F)cc(F)c3)NC(=O)CN3CCN(S(=O)(=O)c4ccc([N+](=O)[O-])cc4)CC3=O)nc3ccccc3c2=O)cc1 with HIV-2 ROD. >416.67

State measured SI ROD (CC50/EC50) of the molecule COc1ccc(-n2c([C@H](Cc3ccccc3)NC(=O)CN3CCN(S(=O)(=O)c4ccc([N+](=O)[O-])cc4)CC3=O)nc3ccccc3c2=O)cc1 with HIV-2 ROD. >312.50

State measured SI ROD (CC50/EC50) of the molecule COc1ccc(-n2c([C@H](Cc3cc(F)cc(F)c3)NC(=O)CN3CCN(S(=O)(=O)c4ccc([N+](=O)[O-])cc4)CC3=O)nc3cc(S(C)(=O)=O)ccc3c2=O)cc1 with HIV-2 ROD. >378.79

---

Reported CC50 by item:
test system: MT-4 cells; test: Cytotoxicity in uninfected MT-4 cells; format: cell-based

Field: example entries. Status: answers known.
{"compound": "COc1ccc(-n2c([C@H](Cc3ccccc3)NC(=O)CN3CCN(S(=O)(=O)c4ccc([N+](=O)[O-])cc4)CC3=O)nc3cc(Br)ccc3c2=O)cc1 [11d1]", "measurement-type": "CC50", "readout-value": "> 161 µM"}
{"compound": "O=C(CN1CCN(S(=O)(=O)c2ccc([N+](=O)[O-])cc2)CC1=O)N[C@@H](Cc1ccccc1)c1nc2ccccc2c(=O)n1-c1ccc(S(=O)(=O)N2CCOCC2)cc1 [20a1]", "measurement-type": "CC50", "readout-value": "> 153 µM"}
{"compound": "COc1ccc(-n2c([C@H](Cc3ccccc3)NC(=O)CN3CCN(S(=O)(=O)c4ccc([N+](=O)[O-])cc4)CC3=O)nc3cc(Cl)ccc3c2=O)cc1 [11c1]", "measurement-type": "CC50", "readout-value": "> 171 µM"}
{"compound": "COc1ccc(-n2c([C@H](Cc3cc(F)cc(F)c3)NC(=O)CN3CCN(S(=O)(=O)c4ccc(N)cc4)CC3=O)nc3cc(F)ccc3c2=O)cc1 [12b2]", "measurement-type": "CC50", "readout-value": "> 173 µM"}
{"compound": "O=C(CN1CCN(S(=O)(=O)c2ccc([N+](=O)[O-])cc2)CC1=O)N[C@@H](Cc1cc(F)cc(F)c1)c1nc2ccccc2c(=O)n1-c1ccc(S(=O)(=O)N2CCOCC2)cc1 [20a2]", "measurement-type": "CC50", "readout-value": "> 147 µM"}

Provide one value: measured CC50 of COc1ccc(-n2c([C@H](Cc3cc(F)cc(F)c3)NC(=O)CN3CCN(S(=O)(=O)c4ccc([N+](=O)[O-])cc4)CC3=O)nc3cc(S(C)(=O)=O)ccc3c2=O)cc1 [11e2] > 154 µM

Provide one value: measured CC50 of O=C(CN1CCN(S(=O)(=O)c2ccc([N+](=O)[O-])cc2)CC1=O)N[C@@H](Cc1ccccc1)c1nc2ccccc2c(=O)n1-c1ccc(S(=O)(=O)N2CCS(=O)(=O)CC2)cc1 [20b1] > 145 µM

---

system: HIV-1 IIIB; experiment: Anti-HIV-1 activity in MT-4 cells; assay type: cell-based; conditions: HIV-1 IIIB, MT-4 cells
measurement-type: SI IIIB (CC50/EC50)

{"compound": "Nc1ccc(S(=O)(=O)N2CCN(CC(=O)N[C@@H](Cc3cc(F)cc(F)c3)c3nc4ccccc4c(=O)n3-c3ccc(S(=O)(=O)N4CCS(=O)(=O)CC4)cc3)C(=O)C2)cc1", "tested-system": "HIV-1 IIIB", "SI IIIB (CC50/EC50)": ">95.42"}
{"compound": "COc1ccc(-n2c([C@H](Cc3ccccc3)NC(=O)CN3CCN(S(=O)(=O)c4ccc([N+](=O)[O-])cc4)CC3=O)nc3cc(Br)ccc3c2=O)cc1", "tested-system": "HIV-1 IIIB", "SI IIIB (CC50/EC50)": ">67.20"}
{"compound": "COc1ccc(-n2c([C@H](Cc3ccccc3)NC(=O)CN3CCN(S(=O)(=O)c4ccc([N+](=O)[O-])cc4)CC3=O)nc3cc(S(C)(=O)=O)ccc3c2=O)cc1", "tested-system": "HIV-1 IIIB", "SI IIIB (CC50/EC50)": ">58.14"}
{"compound": "COc1ccc(-n2c([C@H](Cc3ccccc3)NC(=O)CN3CCN(S(=O)(=O)c4ccc([N+](=O)[O-])cc4)CC3=O)nc3cc(Cl)ccc3c2=O)cc1", "tested-system": "HIV-1 IIIB", "SI IIIB (CC50/EC50)": ">79.11"}
{"compound": "COc1ccc(N(C)C(=O)[C@H](Cc2ccccc2)NC(=O)Cc2c(C)[nH]c3ccccc23)cc1 [PF74, reference compound]", "tested-system": "HIV-1 IIIB", "SI IIIB (CC50/EC50)": ">367.65"}

Now consider a different compound.
Provide one value: measured SI IIIB (CC50/EC50) of COc1ccc(-n2c([C@H](Cc3cc(F)cc(F)c3)NC(=O)CN3CCN(S(=O)(=O)c4ccc(N)cc4)CC3=O)nc3cc(F)ccc3c2=O)cc1 >568.18

---

assay: In vivo pharmacokinetic study in SD rats; conditions: Sprague-Dawley, rat, iv, 2 mg/kg
measurement-type: AUC(0-t) (ng·h/mL)
Express it in ng·h/mL; write the number only.

Provide one value: measured AUC(0-t) of Nc1ccc(S(=O)(=O)N2CCN(CC(=O)N[C@@H](Cc3cc(F)cc(F)c3)c3nc4ccccc4c(=O)n3-c3ccc(S(=O)(=O)N4CCOCC4)cc3)C(=O)C2)cc1 [21a2] 572

---

experiment: In vivo pharmacokinetic study in SD rats; settings: Sprague-Dawley, rat, po, 20 mg/kg
measurement-type: MRT (h)
Express it in h; write the number only.

Provide one value: measured MRT of Nc1ccc(S(=O)(=O)N2CCN(CC(=O)N[C@@H](Cc3cc(F)cc(F)c3)c3nc4ccccc4c(=O)n3-c3ccc(S(=O)(=O)N4CCOCC4)cc3)C(=O)C2)cc1 3.03
